pIC50: recorded values
Target: purified recombinant human BTK protein (Homo sapiens (Human), UniProt Q06187)
Sequence (Q06187 whole entry): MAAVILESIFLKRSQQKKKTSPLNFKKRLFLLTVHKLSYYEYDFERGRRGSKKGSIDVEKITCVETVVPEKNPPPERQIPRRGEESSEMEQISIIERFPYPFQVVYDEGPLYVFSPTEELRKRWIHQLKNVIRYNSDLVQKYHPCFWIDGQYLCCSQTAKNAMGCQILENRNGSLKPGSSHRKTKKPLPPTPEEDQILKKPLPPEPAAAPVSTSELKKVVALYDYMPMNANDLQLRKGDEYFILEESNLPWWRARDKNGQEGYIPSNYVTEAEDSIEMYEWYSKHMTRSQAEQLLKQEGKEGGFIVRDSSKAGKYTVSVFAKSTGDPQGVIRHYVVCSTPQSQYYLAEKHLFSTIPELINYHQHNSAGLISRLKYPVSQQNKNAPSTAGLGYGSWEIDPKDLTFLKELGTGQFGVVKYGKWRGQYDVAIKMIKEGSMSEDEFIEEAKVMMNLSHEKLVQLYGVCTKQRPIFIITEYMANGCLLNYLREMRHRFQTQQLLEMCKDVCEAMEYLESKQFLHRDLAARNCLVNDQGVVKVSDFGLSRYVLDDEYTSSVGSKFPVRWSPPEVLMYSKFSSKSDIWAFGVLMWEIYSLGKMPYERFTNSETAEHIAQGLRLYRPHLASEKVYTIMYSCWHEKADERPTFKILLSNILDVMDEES
Test: Measurement of BTK inhibitory activity (in vitro)
Settings: FL-PEPTIDE 2 substrate 1 μM, ATP 45 μM, 40 minutes at 25° C.
API: returns pIC50 as number; meaning -log10 of concentration in mol/L.

Solved entries:
CCN(CC)C/C=C/C(=O)N1CC[C@@H](n2cc(C(=O)Nc3nc4cc(Cl)ccc4o3)c3c(N)ncnc32)C1 [Example 51] ... 8.83
C=CC(=O)N1CC[C@@H](n2nc(C(=O)Nc3nc4cc(C)ccc4o3)c3c(N)ncnc32)C1 [Example 29] ... 9.31
Nc1ncnc2c1c(C(=O)Nc1nc3cc(Cl)ccc3o1)nn2[C@@H]1CCCN(C(=O)/C=C/CN2CCCCC2)C1 [Example 20] ... 9.10
Nc1ncnc2c1c(C(=O)Nc1nc3cc(Cl)ccc3o1)nn2[C@@H]1CCCN(C(=O)/C=C/CN2CCCC2)C1 [Example 19] ... 9.16
CCN(C)C/C=C/C(=O)N1CC[C@@H](n2nc(C(=O)Nc3nc4cc(Cl)ccc4o3)c3c(N)ncnc32)C1 [Example 33] ... 9.05

Value lookup for pIC50; key = C=CC(=O)N[C@H]1CC[C@H](n2nc(C(=O)Nc3nc4ccccc4o3)c3c(N)ncnc32)CC1 [Example 72] 7.55

Value lookup for pIC50; key = CN(C)C/C=C/C(=O)N1CC[C@@H](n2cc(C(=O)Nc3nc4cc(Cl)ccc4o3)c3c(N)ncnc32)C1 [Example 49] 8.82
